Molecular target: Recombinant his-tagged HA1 from H7N7 strain A/Chicken/Netherlands/01/03 (Abcam Cat. No. ab61286) (Influenza A virus A/Chicken/Netherlands/01/03 (H7N7))
READOUT_KIND: ELISA titer (NANOBODY concentration giving extinction 1) (ng/mL)
Number only, in ng/mL; omit the unit.

Q: I have this binder here, IV25 (yeast-produced NANOBODY (VHH sequence)) (VHH) VHH: QVQLQQSGGGLVQSGGSLSLSCAASGITLNNRVVGWFRQAPGKEREFVGRIMWSVGDTFYARSVKGRFTISRDNAKNTMYLQMNALKPEDTAVYYCAAARDPDLYTGQYEYWGQGTQVTVSS , and I need its recorded ELISA titer (NANOBODY concentration giving extinction 1).
Ans: 27.8

Q: I have this binder here, IV5 (yeast-produced NANOBODY (VHH sequence)) (VHH) VHH: QVQLQQSGGGLVQAGGSLRLSCAASGRTFSTTGMGWFRQAPGKEREFVAAFWWTGGQTFYADSVKGRFTISGDNAGNTVDLQMNSLKPEDTAVYACAAMSKPRNLWRTDSYDYWGQGTQVTVSS , and I need its recorded ELISA titer (NANOBODY concentration giving extinction 1).
Ans: 30.7

Q: I have this binder here, IV37 (yeast-produced NANOBODY (VHH sequence)) (VHH) VHH: QVQLQESGGGLVQAGDSLRLSCAAPGRSFSGGAMSWFRQVPGKEREFVAAIRWSGGGIRYADSVKGRFTISRDNAKNTFYLQMNSLKPEDTAVYYCAIDPRADLVATMTSIRYWGQGTQVTVSS , and I need its recorded ELISA titer (NANOBODY concentration giving extinction 1).
Ans: 31.4
